assay: Acute toxicity in po dosed mouse administered as single dose; format: organism-based; conditions: in vivo
Exercise: for every item that follows, state its recorded LD50.
Numbers only, in mg/kg.

O=[N+]([O-])c1ccc(/C=[N+](/[O-])CCO)o1    518

Prompt line: Record request: LD50 value, item O=C(N[C@H](CO)[C@H](O)c1ccc([N+](=O)[O-])cc1)C(Cl)Cl
Response line: 2640

====

assay: Acute toxicity in ip dosed mouse administered as single dose; format: organism-based; details: in vivo
Metric: LD50 (mg/kg)
One number for each entry, in mg/kg.

O=C(N[C@H](CO)[C@H](O)c1ccc([N+](=O)[O-])cc1)C(Cl)Cl    1320

As a next step, examine the molecule that follows.
Prompt line: Record request: LD50 value, item Cc1c(/C=[N+](\C)[O-])[n+]([O-])c2ccccc2[n+]1[O-]
Response line: 596
